Tested on: Rattus norvegicus
Experiment: Antihypertensive activity was measured as decrease in systolic blood pressure in spontaneously hypertensive rats at 75 mg/kg, po 24 hours after dosing
Format: functional, Artery
# if value of Decrease in SBP reaches 20%, tag Yes; if it stays below, tag No

Solved cases below.
Cc1oc2cc(OCC(O)CNC(C)C)ccc2c(=O)c1-c1ccccc1 (configuration not stated): No
CC(C)NCC(O)COc1ccc2c(=O)c(-c3ccccc3)c(C(C)C)oc2c1 (configuration not stated): No
CC(C)NCC(O)COc1ccc2c(=O)cc(-c3ccccc3)oc2c1 (configuration not stated): No
CCCNCC(O)COc1ccc2c(=O)c(-c3ccccc3)c(C(F)(F)F)oc2c1 (configuration not stated): No
CC(C)NCC(O)COc1ccc2c(=O)c(-c3ccccc3)coc2c1 (configuration not stated): Yes

Is Decrease in SBP at least 20%? Consider CC(C)NCC(O)COc1ccc2c(=O)c(-c3ccccc3)c(-c3ccccc3)oc2c1 (configuration not stated) Yes

----------
Tested on: Rattus norvegicus
Test: Antihypertensive activity was measured as decrease in systolic blood pressure in spontaneously hypertensive rats at 75 mg/kg, po 7.5 hours after dosing
Format: functional, Artery
Listing: Decrease in SBP of selected compounds
Enter your answer as a number in %; do not include the unit.

A selection of reference data follows.
CC(C)NCC(O)COc1ccc2c(=O)c(-c3ccccc3)c(-c3ccccc3)oc2c1 (centres undefined): 30
CC(C)NCC(O)COc1ccc2c(=O)cc(-c3ccccc3)oc2c1 (centres undefined): 23
CC(C)NCC(O)COc1ccc2c(=O)c(-c3ccccc3)coc2c1 (centres undefined): 14
CC(C)NCC(O)COc1ccc2c(=O)c(-c3ccccc3)c(C(C)C)oc2c1 (centres undefined): 25
CC(C)NCC(O)COc1ccc2c(=O)c(-c3ccccc3)c(-c3ccco3)oc2c1 (centres undefined): 15
Cc1oc2cc(OCC(O)C[N+](C)(C)C(C)C)ccc2c(=O)c1-c1ccccc1.[I-] (centres undefined): 0.1
CCCNCC(O)COc1ccc2c(=O)c(-c3ccccc3)c(C(F)(F)F)oc2c1 (centres undefined): 12
CC(C)NCC(O)COc1ccc2c(=O)c(-c3ccccc3)c(C(F)(F)F)oc2c1 (centres undefined): 16

Consider the record given below.
Find the measured Decrease in SBP: item Cc1oc2cc(OCC(O)CNC(C)C)ccc2c(=O)c1-c1ccccc1 (centres undefined) , target or system Rattus norvegicus. 19
